Tested on: MCF7
Assay: NCI tumour cell line growth inhibition, 48 h
Active and inactive are the calls of the source. Rule as the data show it: active = GI50 up to about 1.1 µM and inactive = higher.
REPORTED ENDPOINT: GI50

| STRUCTURE SMILES | REPORTED ENDPOINT | MEAS VALUE |
| --- | --- | --- |
| CN(CC(=O)O)c1ncc2c(n1)-c1ccccc1OC2 | GI50 | > 100 µM (inactive) |
| O=C(O)CCO/N=C1/C(=C2/C(=O)Nc3ccccc32)Nc2ccccc21 | GI50 | 23.3 µM (inactive) |
| Cc1cc2[nH]c3c(C#N)c(-c4ccccc4)c(/C=N/c4ccc(Cl)cc4)c(=O)n3c2cc1C | GI50 | > 100 µM (inactive) |
| CC(=O)c1c(O)cc(O)c(-c2c(C)cc(O)c3c2C(=O)c2cccc(O)c2C3=O)c1O | GI50 | 14.8 µM (inactive) |
| CN(/N=C/c1ccccc1O)c1ccc2ccccc2n1 | GI50 | 2.61 µM (inactive) |

----------
Test system: UO-31
Assay: NCI tumour cell line growth inhibition, 48 h
The source made the active and inactive calls. No stated cut-off is given here; in the data, active = GI50 up to about 1.1 µM and inactive = higher.
Outcomes: label 1 for active, label 0 for inactive

| MOLECULE | CLASS ASSIGNMENT |
| --- | --- |
| O=C1c2ccccc2-c2c1c(-c1ccccc1)c1n2C2(C(=O)c3ccccc3C2=O)C2C(=O)N(c3ccccc3)C(=O)C12 (stereo not given) | label 0 |
| CC1=C(C(=O)Nc2cc(=O)n(C)c(=O)n2C)C(c2ccc([N+](=O)[O-])cc2)C(C(=O)Nc2cc(=O)n(C)c(=O)n2C)=C(C)N1 | label 0 |
| CS(=O)(=O)OCCN(CCOS(C)(=O)=O)c1ccc(/C=N/c2ccc3oc(=O)ccc3c2)cc1 | label 1 |
| CCOP(=O)(CCC(O)CNc1nc(N)nc(Cl)c1/N=N/c1ccc(Cl)cc1)OCC (stereo not given) | label 0 |
| CCOC(=O)/C=C(\C(=O)OCC)n1cc(C)c(=O)n(Cc2cnnn2COCCOC(C)=O)c1=O | label 0 |
| C=CC(C)(C)[C@@]12CC3C(=O)N[C@@H](Cc4ccccc4)C(=O)N3[C@@H]1N(C(C)=O)c1ccccc12 (stereo not given in full) | label 0 |
| Cc1nc2cc(Nc3ccccc3C(=O)O)ccc2s1 | label 0 |
| O=C1CSC(C(/N=N/c2ccc(Cl)cc2)c2nc3ccccc3[nH]2)=N1 (stereo not given) | label 0 |
| CC1=CCCC(OC(N)=O)C1 (stereo not given) | label 0 |
| CCOC(=O)C(C(C)=O)C1CC=CC1 (stereo not given) | label 0 |
| CCOC(=O)NN(C(=O)OCC)C(C(=O)c1ccccc1)N(NC(=O)OCC)C(=O)OCC | label 0 |
| CN(C)CC1CCC/C(=C\c2ccc(OC(=O)/C=C/c3ccc(Cl)c(Cl)c3)cc2)C1=O (stereo not given) | label 0 |
| NC12CC3CC4C1CC1CC2C(C3)C4(N)C1 | label 0 |
| COc1ccc2nc3ccccc3c(NCCCCN(CCCl)CCCl)c2c1 | label 1 |
| COc1ccc(NC=O)c(C(O)CCNC(C)=O)c1 (stereo not given) | label 0 |
| COC(=O)CN1Cc2cc(C)cc(c2O)CN(CC(=O)OC)Cc2cc(C)cc(c2O)CN(CC(=O)OC)Cc2cc(C)cc(c2O)CN(CC(=O)OC)Cc2cc(C)cc(c2O)C1 | label 0 |
| CCC(=O)N(c1ccccc1)C(C)CN1CCC(O)(c2ccccc2)CC1 (stereo not given) | label 0 |
| CC1=C2C(=CC(C)(C)C2O)C(=O)C(C)(O)C12CC2 (stereo not given) | label 1 |
| [O-][S+]1c2ccccc2SCSc2ccccc21 | label 0 |
| S=C1N=C(Cl)/C(=C\c2ccco2)N1 | label 0 |

----------
Test system: HOP-92
Experiment: NCI tumour cell line growth inhibition, 48 h
The source made the active and inactive calls. Cut-off read from the data, not from the text of the source: active = GI50 up to about 1.1 µM and inactive = higher.

| COMPOUND | SYSTEM | GI50 |
| --- | --- | --- |
| CCCCCCCCCCCCC/C=C(/COCC[N+](C)(C)C)OC(C)=O.CCCCCCCCCCCCCC/C(=C/OCC[N+](C)(C)C)OC(C)=O | HOP-92 | 1.16 µM (inactive) |
| C=C(C)[C@@H]1CC[C@]2(COC(C)=O)CC[C@]3(C)[C@H](CC[C@@H]4[C@@]5(C)CC[C@H](OC(C)=O)C(C)(C)[C@@H]5CC[C@]43C)[C@@H]12 [BETULIN DIACETATE] | HOP-92 | > 31.6 µM (inactive) |
| O=CNc1ccccc1OCCOc1ccccc1NC=O | HOP-92 | > 100 µM (inactive) |
| Oc1ccc(O)c(Cc2ccccc2)c1 | HOP-92 | 16.3 µM (inactive) |
| Nc1ccc(C(=O)CC(N)C(=O)O)cc1O (stereo not given) | HOP-92 | > 100 µM (inactive) |
| C[C@@H](c1ccccc1)N(CC#N)[C@H]1CCC[C@]1(O)/C=C/c1ccc2c(c1)OCO2 | HOP-92 | > 25 µM (inactive) |
| NCCNS(=O)(=O)c1ccc(N)cc1 | HOP-92 | > 100 µM (inactive) |
| CC(C)(C)CC(C)(C)N/C(N)=N/O | HOP-92 | 20.3 µM (inactive) |
| O=[N+]([O-])c1ccc2c(c1)c(S(=O)(=O)O)cc1nonc12 | HOP-92 | > 100 µM (inactive) |
| O=[N+]([O-])c1cc(C2SCc3nc4ccccc4n32)ccc1Cl (stereo not given) | HOP-92 | 25.1 µM (inactive) |

----------
GI50 reference
Test system: HL-60
Experiment: NCI tumour cell line growth inhibition, 48 h
The source made the active and inactive calls. No stated cut-off is given here; in the data, active = GI50 up to about 1.1 µM and inactive = higher.
REPORTED ENDPOINT: GI50

| COMPOUND | MEAS VALUE |
| --- | --- |
| Cc1c(C(=O)C/C(=N/NC(=O)C[N+](C)(C)C)C(=O)Nc2ccc(Cl)cc2)[n+]([O-])c2ccccc2[n+]1[O-] | > 100 µM (inactive) |
| O=C(Nc1ccccc1)OCc1nc2c([nH]1)C(=O)C=CC2=O | 3.29 µM (inactive) |
| Cc1ccc(C(=O)/C=C2/Nc3ccc([N+](=O)[O-])cc3N/C2=C/C(=O)c2ccc(C)cc2)cc1 | 34.7 µM (inactive) |
| O=C1Cc2c(-c3ccccc3)cc(-c3ccccc3)nc2-c2ccccc2N1 | 75.9 µM (inactive) |
| COc1cc(C(O)c2ccc3c(c2)OCO3)cc(OC)c1OC (stereo not given) | > 100 µM (inactive) |
| O=C(Nc1ccccc1)c1cc2c(cc1Cl)Sc1nccn1S2(=O)=O | 15.8 µM (inactive) |
| Cc1ccnc2c1ccc1nc3ccccc3n12 | 85.3 µM (inactive) |
| OC(CC(c1ccccc1)c1ccc(Cl)cc1)c1ccc(Cl)cc1 (stereo not given) | 24.9 µM (inactive) |
| CC(=O)Oc1c(C)cc2c(c1C)C(C)(C)CN2C(=O)C(C)(C)C | 63.8 µM (inactive) |
| CCOc1ccc2nc3nc(O)nc(C)c3c(NCCCN(CC)CC)c2c1 | > 100 µM (inactive) |

----------
System: MOLT-4
Assay: NCI tumour cell line growth inhibition, 48 h
The source made the active and inactive calls. Rule as the data show it: active = GI50 up to about 1.1 µM and inactive = higher.
Outcomes: yes (1) = active, no (0) = inactive

| COMPOUND | CLASS ASSIGNMENT |
| --- | --- |
| O=C(OCc1ccccc1)n1cccc1 | no (0) |
| Cc1cn(C(CO)OC(CO)CN(O)C2C3CC4CC(C3)CC2C4)c(=O)[nH]c1=O (stereo not given) | no (0) |
| Fc1ccc(C(OCCN2CCC3CCC(C2)N3C/C=C/c2ccco2)c2ccc(F)cc2)cc1 (stereo not given) | no (0) |
| CC1=NN(C(=O)CC(=O)Nc2cccc(Cl)c2)C(=O)C1/N=N\c1ccc(S(=O)(=O)c2ccc(/N=N/C3C(=O)N(C(=O)CC(=O)Nc4cccc(Cl)c4)N=C3C)cc2)cc1 (stereo not given) | no (0) |
| COc1ccc(C2C=C(c3ccc4c(c3)OCO4)Oc3c2c(=O)oc2ccccc32)cc1OC (stereo not given) | yes (1) |
| COc1ccc(NC=O)c(C(O)CCNC(C)=O)c1 (stereo not given) | no (0) |
| Cc1c(CNc2ccc(Cl)c(Cl)c2Cl)cnc2nc(N)nc(N)c12 | yes (1) |
| COc1ccc(-c2cc(=O)c3c(O)cc(O)cc3o2)cc1OC | no (0) |
| COc1ccc2nc(NC(=O)/C(C#N)=C/c3ccccc3)sc2c1 | no (0) |
| O=C(C[C@@H]1NCCC[C@H]1O)Cn1cnc2cc(Br)c(Cl)cc2c1=O | yes (1) |
| COc1cc2c(cc1OCCCN1CCN(C)CC1)N=C[C@@H]1CCCN1C2=O | yes (1) |
| CC1(C)CCC(C)(C)c2cc(C(=O)Nc3ccc(C(=O)O)cc3)ccc21 | no (0) |
| C=CCC1(O)c2cccc(O)c2C(=O)c2cccc(O)c21 (stereo not given) | no (0) |
| COc1ccc(/C=C/c2ccnc3ccccc23)cc1 | no (0) |
| CCCCCCCCCCCCC/C=C(/COCC[N+](C)(C)C)OC(C)=O.CCCCCCCCCCCCCC/C(=C/OCC[N+](C)(C)C)OC(C)=O | no (0) |
| COc1cccc(N2C(=O)/C(=C/c3ccc(N(CCC#N)CCC#N)cc3)N=C2c2cc([N+](=O)[O-])ccc2Cl)c1 | no (0) |
| CCc1n[nH]c(=O)n1NC(=O)/C=C\C(=O)O | no (0) |
| CSc1nc(NC2OCC(OC(C)=O)C(OC(C)=O)C2OC(C)=O)c(/N=C\C=N\c2c(NC3OCC(OC(C)=O)C(OC(C)=O)C3OC(C)=O)nc(SC)[nH]c2=O)c(=O)[nH]1 (stereo not given) | no (0) |
| C=CCOC(=O)N1c2ccc(O)cc2[C@@]23O[C@@]24[C@@H]1C#C/C=C\C#C[C@]3(O)C(=O)C[C@@H]4C | no (0) |
| O=c1cc(NNc2cccc(F)c2)[nH]c(=O)[nH]1 | no (0) |
